Target: Prostaglandin G/H synthase 1 (Ovis aries, UniProt P05979)
Sequence (P05979 whole entry): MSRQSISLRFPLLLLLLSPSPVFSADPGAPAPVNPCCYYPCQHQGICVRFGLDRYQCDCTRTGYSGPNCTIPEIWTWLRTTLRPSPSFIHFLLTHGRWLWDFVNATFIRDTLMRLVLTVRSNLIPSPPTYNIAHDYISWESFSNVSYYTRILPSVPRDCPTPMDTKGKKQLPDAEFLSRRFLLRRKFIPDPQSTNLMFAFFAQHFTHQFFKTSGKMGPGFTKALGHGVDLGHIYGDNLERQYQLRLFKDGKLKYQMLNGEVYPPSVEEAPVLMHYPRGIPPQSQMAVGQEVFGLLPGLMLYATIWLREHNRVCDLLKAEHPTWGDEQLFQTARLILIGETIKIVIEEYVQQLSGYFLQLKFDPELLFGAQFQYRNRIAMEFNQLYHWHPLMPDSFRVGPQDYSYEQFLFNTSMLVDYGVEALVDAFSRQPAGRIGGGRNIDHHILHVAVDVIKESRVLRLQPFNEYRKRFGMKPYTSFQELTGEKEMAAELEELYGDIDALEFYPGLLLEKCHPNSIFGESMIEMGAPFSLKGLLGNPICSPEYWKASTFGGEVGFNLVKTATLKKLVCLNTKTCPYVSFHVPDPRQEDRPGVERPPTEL
pIC50: −log10 of the molar value.
Each record here notes measured pIC50.
measured-metric: pIC50

{"columns": ["structure-string", "tested-system", "measurement"],
 "data": [
  ["CC(C)Cc1ccc(C2=C/C(=C\\c3ccc(F)cc3)C(=O)O2)cc1", "Prostaglandin G/H synthase 1 (Ovis aries, UniProt P05979)", 4.17],
  ["CC(C)Cc1ccc(C2=C/C(=C\\c3c(Cl)cccc3Cl)C(=O)O2)cc1", "Prostaglandin G/H synthase 1 (Ovis aries, UniProt P05979)", 4.32]
]}
